src = ChEMBL document CHEMBL3988442

- Test system: Plasmodium falciparum
- Assay Overview: Calibr Malaria Delayed Death Assay SOP
- Type: functional, organism-based
- Set-up: scale not given: in the data most compounds retested in dose-response had high values
- Measurement Conditions: concentration 4.99e-06 (unit not given; other assays of the set use mol/L)
The campaign covered roughly 38,000 compounds. About 1,200 (3.2%) showed an effect of 50% or more. The median lay at about -58%. For the sample, strong results were picked, then their nearest neighbours and some compounds at random.
In this section we review reported Percent Effect values for a set of compounds.

| Compound | Percent Effect [%] |
| --- | --- |
| COc1cccc(CNCCc2cccc(C(N)=O)c2)c1 | -12.09 |
| Cc1ccc(CN2CC[C@H]3OCC[C@@]3(C(=O)N3CCCO3)C2)o1.O=C(O)C(F)(F)F | -80.01 |
| COc1ccccc1CNC(=O)COc1ccc2c(c1)OCC2O (stereo unspecified) | -166.7 |
| CNC(=O)c1ccc2c(c1)C1(CCN(CC3CC3)CC1)C(=O)N2.O=C(O)C(F)(F)F | -45 |
| O=C(O)CCCC(=O)N1CCC(c2noc3cc(F)ccc23)CC1 | -131.6 |
| COc1cccc(CNCCNS(=O)(=O)Cc2ccccc2)c1 | 54.45 |
| CC(C)NC(=O)[C@@H]1C[C@H]2NCC[C@H]2O1.Cl | -114.2 |
| Cn1cc(CN(C(=O)c2ccc3ncsc3c2)C2CC2)cn1 | -137 |
| CCn1ncc2c1C(COC)CN(Cc1ccc(C)o1)C2 (stereo unspecified) | -90.58 |
| Cc1ccccc1CN1CCC(CNC(=O)Cn2cncn2)CC1 | 1.836 |
| Cc1cc(C)c(Cn2cncn2)cc1CN1CC[C@H]2CC[C@@H](C1)N2 | 12.41 |

* * *

- Tested on: Plasmodium falciparum
- Assay Overview: Calibr Malaria Delayed Death Assay SOP
- Assay type: functional, organism-based
- Design: scale not given: in the data most compounds retested in dose-response had high values
- Measurement Conditions: concentration 4.99e-06 (unit not given; other assays of the set use mol/L)
In all, about 38,000 compounds went through this assay and about 1,200 (3.2%) showed an effect of 50% or more. The median lay at about -58%. What follows is part of a selection rich in strong results, with near analogues and random picks from the rest.
Kind request: treat -40% as inclusive, so Percent Effect at -40% or higher is Met, anything lower is Not met.

| Compound | Group Label |
| --- | --- |
| O=C(O)C(F)(F)F.O=C1[C@H]2CN(S(=O)(=O)C3CC3)C[C@H]2CN1Cc1cccnc1 | Met |
| COc1ccc(-c2nnc(CNCCn3cc(C)cn3)o2)cc1 | Not met |
| O=C(O)C(F)(F)F.O=C([C@H]1C[C@H]2OCC[C@H]2N(Cc2ccoc2)C1)N1CCCCO1 | Not met |
| COc1cc(CN2CCCC23CCN(c2ccccn2)CC3)ccc1F | Met |
| CC(C)(C)c1ccc(C(=O)C2CCCN(C(=O)CNS(C)(=O)=O)C2)cc1 (stereo not given) | Not met |
| Fc1cccc(N2CCCC3(CN(Cc4ccccn4)CCO3)C2)c1.O=C(O)C(F)(F)F.O=C(O)C(F)(F)F.O=C(O)C(F)(F)F (stereo not given) | Not met |
| Fc1cccc(N2CCCC3(C2)CN(c2ncccn2)CCO3)c1.O=C(O)C(F)(F)F.O=C(O)C(F)(F)F (stereo not given) | Met |
| Fc1cccc(N2CCCC3(CN(Cc4nccs4)CCO3)C2)c1.O=C(O)C(F)(F)F.O=C(O)C(F)(F)F (stereo not given) | Met |
| CCC(CNC(=O)COC)Oc1cccc(F)c1 (stereo not given) | Not met |
| Cn1cc(-c2nc(CN3CCN(CCO)CC3)cs2)cn1 | Not met |
| O=C(C1CCOCC1)N1C[C@H](OCc2cccnc2)[C@H]2COC[C@H]21 | Not met |
| Fc1cccc(N2CCCC3(CN(Cc4ccco4)CCO3)C2)c1.O=C(O)C(F)(F)F.O=C(O)C(F)(F)F (stereo not given) | Met |
| CCCC1CCCN(Cc2csc(-c3cnn(C)c3)n2)CC1 (stereo not given) | Met |
| COc1cc(Cl)c(NCc2c(C)noc2C)cc1OC | Not met |
| CNCCCNC1CCN(c2ccc(-n3ccnc3)cc2)CC1 | Met |
| O=C(NC1CCNC1)C1(N2CCCCC2)Cc2ccccc2C1 (stereo not given) | Met |
| O=C1NCCCC[C@@H]1NC(=O)C1(N2CCCCC2)Cc2ccccc2C1 | Not met |
| Fc1cccc(N2CCCC3(CN(Cc4cccnc4)CCO3)C2)c1.O=C(O)C(F)(F)F.O=C(O)C(F)(F)F.O=C(O)C(F)(F)F (stereo not given) | Met |
| Cn1cc(C[C@H]2[C@H](O)CCN2Cc2ccncc2)cn1.O=C(O)C(F)(F)F.O=C(O)C(F)(F)F | Met |
| COC(=O)c1ccc2c(-c3ccnc(N[C@@H](C)CO)n3)c[nH]c2c1 | Met |
